Test: Quantitative High-Throughput drug screen in 47 multiple myeloma cell lines against the NCATS MIPE library collection: KMS26_JCRB cell viability assay (AID 1918975); further: nearly all actives have a fitted effect of over 45% in size
Settings: KMS26 myeloma cells viability, CellTiter-Glo ATP, 48 h; series mostly up to 45.8 µM
Inconclusive results are not listed. Calls of active or inactive are those of the source. The call rests on the fitted dose curve; in most records, active means well fitted cell-killing curve with a large enough effect; inconclusive means small, poorly fitted or top-dose-only effect, or effect the other way; inactive means no such curve, though single readings can be large or run the other way.
Please answer using one outcome listed in 1 (yes) for active, 0 (no) for inactive

Below are worked cases with known answers.
# compound, cat
records = [
    ("CCc1cccc2c3c([nH]c12)C(CC)(CC(=O)O)OCC3 (configuration not stated)", "0 (no)"),
    ("NCCc1cnc[nH]1", "0 (no)"),
    ("O=C(c1ccc(F)cc1)C1CCN(CCn2c(=O)[nH]c3ccccc3c2=O)CC1", "0 (no)"),
]

I would be grateful if you could indicate the recorded call for `O=C(Nc1ccc([N+](=O)[O-])cc1Cl)c1cc(Cl)ccc1O` . 1 (yes)

I would be grateful if you could indicate the recorded call for `COc1ccc2[nH]cc(CCNC(C)=O)c2c1` . 1 (yes)

I would be grateful if you could indicate the recorded call for `O=C1N(c2ccccc2)c2ccccc2C1(Cc1ccncc1)Cc1ccncc1` . 1 (yes)

I would be grateful if you could indicate the recorded call for `C[C@H]1c2cccc(O)c2C(O)=C2C(=O)[C@]3(O)C(O)=C(C(N)=O)C(=O)[C@@H](N(C)C)[C@@H]3[C@@H](O)[C@@H]21` . 1 (yes)

I would be grateful if you could indicate the recorded call for Clc1ccc(C(c2ccccc2Cl)C(Cl)Cl)cc1 (configuration not stated) . 1 (yes)

I would be grateful if you could indicate the recorded call for `Cn1c(=O)c2[nH]cnc2n(C)c1=O` . 0 (no)

* * *

Assay: qHTS of pediatric cancer cell lines to identify multiple opportunities for drug repurposing: Primary screen for Rh30 cells (AID 1347107); further: nearly all actives have a fitted effect of over 75% in size
Details: Rh30 rhabdomyosarcoma viability, CellTiter-Glo luminescence, 48 h; series mostly up to 46 µM
Procedure: Drug repurposing or repositioning has been offered as a strategy for drug development in oncology programs. […] [1] Shen, M et al. Quantitative high-throughput phenotypic screening of pediatric cancer cell lines identifies multiple opportunities for drug repurposing. […] Cells were assayed in growth media at a density of 500-1,000 cells/well. […] After a 15 min incubation at room temperature, samples were analyzed for luminescence intensity using a ViewLux High-throughput CCD imager equipped with clear filters.
Records with an inconclusive call do not appear. Active and inactive are the calls of the source. The call rests on the fitted dose curve; in most records, active means well fitted cell-killing curve with a large enough effect; inconclusive means small, poorly fitted or top-dose-only effect; inactive means no such curve, though single readings can be large or run the other way.
quantity_name: outcome

Worked cases, outcome given:
# compound, outcome
records = [
    ("CN(C)C(=N)N=C(N)N", "inactive"),
    ("O=C(c1ccc(OCCN2CCCCC2)cc1)c1c(-c2ccc(O)cc2)sc2cc(O)ccc12", "inactive"),
    ("CCCCc1oc2ccccc2c1C(=O)c1cc(I)c(OCCN(CC)CC)c(I)c1", "inactive"),
    ("COc1ccc2c(c1)c(CC(=O)O)c(C)n2C(=O)c1ccc(Cl)cc1", "inactive"),
]

Lab note: measured outcome of `NCCCCCC(=O)O` was inactive

Lab note: measured outcome of `NS(=O)(=O)c1cc2c(cc1Cl)NCNS2(=O)=O` was inactive

Lab note: measured outcome of CC(C)Cc1ccc(C(C)C(=O)O)cc1 (centres undefined) was inactive

Lab note: measured outcome of `Nc1nc2c(ncn2COC(CO)CO)c(=O)[nH]1` was inactive

Lab note: measured outcome of `O=C(Nc1ccc([N+](=O)[O-])cc1Cl)c1cc(Cl)ccc1O` was inactive
